The following compounds are listed with their measured fractional viability values.
system: TYKNU; assay: fractional viability relative to vehicle; TYKNU is a high-grade serous ovarian cancer line; higher = less growth inhibition; details: 10uM; 72 h; genotype: sgCTRLA1 (non-targeting control)
Whole data set: some 2,000 compounds, median “fractional viability relative to vehicle” near 0.91, cut for the lowest 2% near 0.045. The full list was thinned out, with the lowest values kept by preference.
Keep the answer to the number alone.

Look at this compound and give its reported fractional viability. C=CC(=O)Nc1cccc(Sc2nc(Nc3ccc(N4CCN(C)CC4)cc3)ncc2Cl)c1
0.0337

Look at this compound and give its reported fractional viability. C=CC(=O)Nc1cccc(Oc2nc(Nc3ccc(N4CCN(C)CC4)cc3OC)ncc2Cl)c1
0.492

Look at this compound and give its reported fractional viability. CNC[C@@H](O)c1ccc(O)c(O)c1
0.91

Look at this compound and give its reported fractional viability. CCC1C/C(=C\c2cccnc2)C(=O)/C(=C/c2cccnc2)C1 (stereo not drawn)
0.0253

Look at this compound and give its reported fractional viability. CCC(=O)Nc1cccc(Oc2nc(Nc3ccc(N4CCN(C)CC4)cc3OC)ncc2Cl)c1
0.347

Look at this compound and give its reported fractional viability. CN(C)CCOc1ccc(-c2nc(-c3ccncc3)c(-c3ccc4c(c3)CC/C4=N\O)[nH]2)cc1
0.0137

***
Look at this compound and give its reported fractional viability. OCCn1cc(-c2ccc3c(c2)CC/C3=N\O)c(-c2ccncc2)n1
0.816

Look at this compound and give its reported fractional viability. CNC(=O)c1ccccc1Nc1nc(Nc2ccc(N3CCOCC3)cc2OC)ncc1Cl
0.206

Data provenance is the supplement of paper PMC5919970.
